Where do the numbers come from? From patent US20250011363A1.

target: acetylcholine receptor; assay: SPR, AchR immobilized on CM5 chip, peptide at 10 uM
Consider the following binders; for each one, report its Binding affinity (RU).
// note: answer is a bare numeric in RU

// sample KCNGR [5mer-715] , its Binding affinity (RU) was 22

// sample KPNWR [5mer-703] , its Binding affinity (RU) was 22

// sample KEPDK [5mer-729] , its Binding affinity (RU) was 23

// sample RWRSRR [6mer-2-367] , its Binding affinity (RU) was 142

// sample RWISKK [6mer-2-354] , its Binding affinity (RU) was 135

// sample RRCTER [6mer-1-863] , its Binding affinity (RU) was 27

// sample KKDVK [5mer-1039] , its Binding affinity (RU) was 32

// sample RHHMR [5mer-1032] , its Binding affinity (RU) was 23

// sample KMDEK [5mer-1045] , its Binding affinity (RU) was 22

// sample KSVSRR [6mer-2-382] , its Binding affinity (RU) was 148

// sample KKYNHK [6mer-1-847] , its Binding affinity (RU) was 20

// sample KADHK [5mer-731] , its Binding affinity (RU) was 18

// sample RCTWK [5mer-1017] , its Binding affinity (RU) was 24

// sample KWLCKK [6mer-2-387] , its Binding affinity (RU) was 146

// sample RDADR [5mer-1004] , its Binding affinity (RU) was 30

// sample KRDPFR [6mer-1-804] , its Binding affinity (RU) was 31

// sample RKTDK [5mer-747] , its Binding affinity (RU) was 31
